biological target: T1, CD71 apical domain (human, UniProt P02786 189-383, limits assumed); test: solution ELISA screen (luminescence)
T1 construct: domain: apical domain
T1 sequence (P02786 189-383 limits assumed): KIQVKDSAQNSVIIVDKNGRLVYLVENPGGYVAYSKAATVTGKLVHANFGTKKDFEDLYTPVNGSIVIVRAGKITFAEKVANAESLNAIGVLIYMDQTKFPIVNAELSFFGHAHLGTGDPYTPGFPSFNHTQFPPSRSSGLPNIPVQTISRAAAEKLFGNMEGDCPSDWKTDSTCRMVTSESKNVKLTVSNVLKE
metric: RLU (RLU)
Express it in RLU; write the number only.

Here are 3 binders together with their reported answers.
- binder: "SEQ ID NO 208 (designed binder, not shown: small tags and cut ends) MLPAPKNLVVSRVTEDSARLSWTAPDAAFDSFFIGYLEPQPPGEAIVLAVPGSERSYDLTGLKPGTEYNVTIQGVKGGFPSYPLVAAFTT"
  unitString: "RLU"
  RLU: "3.7e+06"
- binder: "SEQ ID NO 260 (designed binder, not shown: small tags and cut ends) MLPAPKNLVVSRVTEDSARLSWTAPDAAFDSFYIAYAEPRPDGEAIHLRVPGSERSYDLTGLKPGTEYNVTIQGVKGGFPSMPLSAIFTT"
  unitString: "RLU"
  RLU: "7.05e+06"
- binder: "SEQ ID NO 206 (designed binder, not shown: small tags and cut ends) MLPAPKNLVVSRVTEDSARLSWTAPDAAFDSFYIAYAEPRPDGEAIGLDVPGSERSYDLTGLKPGTEYSVLIHGVKGGLLSSPLSAIFTT"
  unitString: "RLU"
  RLU: "5.22e+06"

Would you mind telling me what RLU value was observed for SEQ ID NO 210 (designed binder, not shown: small tags and cut ends) MLPAPKNLVVSRVTEDSARLSWTAPDAAFDSFFIGYLEPQPPGEAINLQVPGSERSYDLTGLKPGTEYNVTIQGVKGGFPSFPLSAVFTT ?
4.12e+06
